test system: juvenile S. japonicum (schistosomula); test: In vitro assay for drug effect on juvenile S. japonicum; assay type: cell-based, Schistosoma japonicum; conditions: 10 μg/mL
Assay metric: Juvenile S. japonicum worm-killing

• CCCCCCNCC(O)Cn1c2ccc(Cl)cc2c2cc(Cl)ccc21 (centres unmarked) [Compound 9] = +
• CCCCNC[C@H](O)Cn1c2ccc(Cl)cc2c2cc(Cl)ccc21 [(S)-7] = +
• CCCCNC[C@@H](O)Cn1c2ccc(Cl)cc2c2cc(Cl)ccc21 [(R)-7] = +
• CCCCCCCNCC(O)Cn1c2ccc(Cl)cc2c2cc(Cl)ccc21 (centres unmarked) [Compound 10] = +
• CCCCCCCCNCC(O)Cn1c2ccc(Cl)cc2c2cc(Cl)ccc21 (centres unmarked) [Compound 11] = +

====

system: human embryonic lung fibroblast WI38; assay: Cytotoxicity assay on WI38 cells; type: cell-based; conditions: CC50 WI38 / IC50 PfDd2
Each entry below carries its recorded SI CC50/IC50 (PfDd2).
Assay metric: SI CC50/IC50 (PfDd2)

• CCCCCCCNCC(O)Cn1c2ccc(Cl)cc2c2cc(Cl)ccc21 (centres unmarked) = 95
• CCCCNC[C@@H](O)Cn1c2ccc(Cl)cc2c2cc(Cl)ccc21 [(R)-7] = 45
• CCCCNC[C@H](O)Cn1c2ccc(Cl)cc2c2cc(Cl)ccc21 [(S)-7] = 83
• CCCCCCNCC(O)Cn1c2ccc(Cl)cc2c2cc(Cl)ccc21 (centres unmarked) = 126
• CCCCCCCCNCC(O)Cn1c2ccc(Cl)cc2c2cc(Cl)ccc21 (centres unmarked) = 70

====

tested on: β-hematin formation; experiment: Inhibition assay of β-hematin formation; format: biochemical; conditions: read-out: β-Hematin IC50
Each entry below carries its recorded IC50.
Assay metric: IC50 (µM)

- CCCCNC[C@@H](O)Cn1c2ccc(Cl)cc2c2cc(Cl)ccc21 [(R)-7]: 119
- CCCCCCCCNCC(O)Cn1c2ccc(Cl)cc2c2cc(Cl)ccc21 (stereo not shown): 65.4
- CCN(CC)Cc1cc(Nc2ccnc3cc(Cl)ccc23)ccc1O [Amodiaquine, reference compound]: 15.9
- CCN(CC)CCCC(C)Nc1ccnc2cc(Cl)ccc12 (stereo not shown) [Chloroquine, reference compound]: 61
- CCCCCCCNCC(O)Cn1c2ccc(Cl)cc2c2cc(Cl)ccc21 (stereo not shown): 91.6
- CCCCCCNCC(O)Cn1c2ccc(Cl)cc2c2cc(Cl)ccc21 (stereo not shown): 55
- CCCCNC[C@H](O)Cn1c2ccc(Cl)cc2c2cc(Cl)ccc21 [(S)-7]: 106

====

Each entry below carries its recorded SI CC50/IC50 (Pf3D7).
test system: human embryonic lung fibroblast WI38; assay: Cytotoxicity assay on WI38 cells; assay type: cell-based; settings: CC50 WI38 / IC50 Pf3D7
Assay metric: SI CC50/IC50 (Pf3D7)

- CCCCCCCNCC(O)Cn1c2ccc(Cl)cc2c2cc(Cl)ccc21 (centres unmarked) [Compound 10]: 28
- CCCCCCCCNCC(O)Cn1c2ccc(Cl)cc2c2cc(Cl)ccc21 (centres unmarked) [Compound 11]: 29
- CCCCNC[C@H](O)Cn1c2ccc(Cl)cc2c2cc(Cl)ccc21 [(S)-7]: 24
- CCCCCCNCC(O)Cn1c2ccc(Cl)cc2c2cc(Cl)ccc21 (centres unmarked) [Compound 9]: 22
- CCCCNC[C@@H](O)Cn1c2ccc(Cl)cc2c2cc(Cl)ccc21 [(R)-7]: 22
